These data points were gathered from the nanobody polyreactivity screen of Harvey et al. (2022).

- assay-notes: yeast display, Sf9 membrane polyspecificity reagent, FACS + sequencing; frameworks hold sequencing errors

| construct-sequence | polyreactivity (PSR sort gate) |
| --- | --- |
| QVQLVESGGGLVQAGGSLRLSCAAYGPTFRYNTMGWNRQAPGKERELDARITWSGGSTYYADSVKGRFTISRDNAKNTVYLQMNSLKPEDTAVYYCAAVPILVYRWFQSYTGDYDYWGQGTHVTVSS | low polyreactivity |
| QVQLEESGGALVQAGGSLRLSCAASGFTFYRNALGWNRQAPGQERELVGAITRGGSTTYADSVKGRFTISRDNAKNTVYLQMNRMKPEDTAVYYCAAPKYIWYRDLNYWGQGTQVTVSS | high polyreactivity |
| QVQLVESGAGLVQAGGSLRLSCAASGRIFERYAMGWYRQAPGKERELVAAISVSGSGTYYADSVKGRFTISRDNAKNTVYLQMNSLKPEDTAVYYCAADASLLGLFQGYDYWGQGTQVTVSS | low polyreactivity |
| QVQLVESGGGLVQAGGSLRLSCAASGSTFGLYVMGWYRQAPGKERELVAAISWSGGSTYYADSVKGRFTISRDTAKNTVYLQMNSLKPEDTAVYYCAKVFRTYRYPYGYWGQGTQVTVSS | high polyreactivity |
| QVQLVESGGGLVQAGGSLRLSFAASGSTFSEYALGLYRQAPGKERELVAAITSSSGSTYYADSVKGRFTISRVNAKNTVYLQMNSLKPEDTAVYYCNAYYRTVYYDWGDYEYWGEGTQVTVSS | high polyreactivity |
| QVQLVESGGGLVQAGGSLRLSCAASARTYGANAMGRYRQAPGKERELVAAISYHGTRTYYADSVKGRFTISRDNAKNTVYLQMNSLKPEDTAVYYCAAVCKPGVYQEGDEWGQGTQVTVSS | high polyreactivity |
| QVQLVESGGGLVQAGGSLRISSAASGSTNYPNAMGWYRQAPGKERELVAVIRWSGGSTYYADSVKGRFTISRDNAKNTVYLQMNSLKPEDTAVYYCNADFYRVAYLRRYSHFDYWGQGTQVTVSS | high polyreactivity |
| QVQLVESGGGLVKAGGSLRLSCAASGFSFFGYAMGWYRQAPGKERELVAAIDNGGSTNYADSVKGRFTISRDNAKNTVYLQMNSLKPEDTAVYYCNTDVDYAILDYWGQGTQVTVSS | low polyreactivity |
| QVQLEESGGGLVQAGGSLRLSCAASGIIFAYYAMGWYRQAPGKERELVGTNYADSVKGRFTISRDNAKNTVYLQMNSLKPEDTAVYYCAVVGGEFSSYGYWGQGTLVTVSS | low polyreactivity |
| QVQLVESWGGLVQAGGSLRLSCAASGIIRSNAMGWYRQAPGKERELVAVISSSGGRTYYADSVKGRFTISRDNAKNTVYLQMNSLKPEDTAVYYCAAQVQVGAFSYYYWGQGTQVTVSS | high polyreactivity |
| QDQLVESGGGLVQAGGSLRLSCAASGRIFKHNAMGWYRQAPGKERELVATISIAGRTNYADSVKGRFTISRDNAKNTVYLQMNSLKPEDTAVYYCAASTFFIHTYDYWGQGTQVTVSS | low polyreactivity |
